# method.summary: supercomplex reporter luminescence per Hoechst cell count – Hoechst nuclei count (AID 1645838);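 also: control cybrid cells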
# condition: Cells, luminescence/Hoechst cell count ratio, measured here: cell number, Hoechst nuclei count, library stock concentration (final well concentration not given) 46 uM
About 100 (5%) of roughly 2,000 compounds were called active. The full list was thinned out, with actives kept by preference.
Rule: cell count under 6000 gives condition not met, otherwise condition met.

See these solved cases before continuing.
compound="O=C1C(Cc2ccc(O)cc2)N2C(=O)CCN(C(=O)NCc3ccccc3)C2CN1Cc1cccc2ccccc12 (configuration not stated)" group="condition met"
compound="COc1ccc(C(=O)CC2(O)C(=O)Nc3c(Cl)ccc(Cl)c32)cc1 (configuration not stated)" group="condition met"
compound="NC(=O)c1noc(C(CCCC2CCCCC2)CC(=O)NO)n1 (configuration not stated)" group="condition met"
compound=COc1cc(NC(=O)c2ccc(-c3ccc(Cl)cc3)o2)cc(OC)c1 group="condition met"
compound=CC(C)c1ccccc1OC(=O)NCCc1ccc2ccccc2c1 group="condition met"

## Task For this compound, is measured cell count 6000 or higher? COc1cc(C(=O)N(CCC2CCCN2C)CC(C)=Cc2ccccc2F)cc(OC)c1OC (configuration not stated)
## Result condition met

## Task Hi team, for O=C(O)CCn1nnc2ccccc21 , is the recorded cell count at or above 6000?
## Result condition met

## Task Could you verify whether the entry Cc1cnc(Nc2ccc(F)cc2Cl)nc1-c1c[nH]c(C(=O)NC(CO)c2cccc(Cl)c2)c1 (configuration not stated) shows cell count of no less than 6000?
## Result condition met

## Task Check this compound for cell count at or above 6000: COc1cc(Nc2c(C#N)cnc3cc(OCCCN4CCN(C)CC4)c(OC)cc23)c(Cl)cc1Cl
## Result condition not met

## Task Hello, I need to know if CCC(=O)NCC1CC1c1cccc2c1CCO2 (configuration not stated) has measured cell count not below 6000. Thanks!
## Result condition met

## Task Could you please find out whether CN(C)CCC1(c2ccc(Cl)cc2)Cc2ccccc2C(=O)O1 (configuration not stated) has cell count that meets 6000 or exceeds it?
## Result condition met

## Task Form field: cell count at least 6000? Entry: COc1cccc(-c2ccc(NC(=O)C3=C(C(=O)O)CCC3)c(F)c2)c1
## Result condition met

## Task Could you verify whether the entry Cc1cnc(Nc2ccc(OCCN3CCCC3)cc2)nc1Nc1cccc(S(=O)(=O)NC(C)(C)C)c1 shows cell count of no less than 6000?
## Result condition not met

## Task Exam item: decide whether the reported cell count for c1ccc(Nc2nc3c(s2)CCCc2[nH]ncc2-3)nc1 is at least 6000.
## Result condition met

## Task Given O=c1ncccn1C1OC(CO)C(O)C1O (configuration not stated) , state whether its cell count is at least 6000.
## Result condition not met

## Task Can N#Cc1cccc(C#N)c1-c1nc2c3ccccc3c3cc(Cl)ccc3c2[nH]1 be said to have cell count at or above 6000?
## Result condition met

## Task # check: cell count of COc1cc2c(Oc3ccc4[nH]c(C)cc4c3F)ncnc2cc1OCCCN1CCCC1 is greater than or equal to 6000
## Result condition not met

## Task hey, is cell count for this one >= 6000? C=CCn1c(=O)c2cnc(Nc3ccc(N4CCN(C)CC4)cc3)nc2n1-c1cccc(C(C)(C)O)n1
## Result condition not met

## Task Does the compound Nc1ccccc1NC(=O)c1ccc(CNC(=O)OCc2cccnc2)cc1 have recorded cell count that is 6000 or more?
## Result condition not met

## Task Is cell count at least 6000? Consider O=C(NNS(=O)(=O)c1ccccc1C(F)(F)F)c1cc2cc(Cl)ccc2o1
## Result condition met
